Assay name: Apparent permeability across apical to basolateral side in dog MDCKII-MDR1 cells overexpressing BCRP at 0.1 uM incubated for 90 mins by LC-MS/MS analysis
Assay type: ADME, cell-based, Canis lupus familiaris, MDCK-MDR1
Values of Papp A→B at […], 0.1 µM greater than or equal to 20 ×10⁻⁶ cm/s map to condition met; values below map to condition not met.

Worked examples follow.
1. COCc1ccc(-c2ccc3ncc4c(c3c2)n(C(C)C)c(=O)n4C)cn1
condition met
2. CC(C)n1c(=O)n(C)c2cnc3cc(F)c(-c4ccc(N5CCN(C)CC5)nc4)cc3c21
condition not met
3. CO[C@H]1C[C@H](n2c(=O)n(C)c3cnc4ccc(-c5ccc(OCCCN6CCCCC6)nc5)cc4c32)C1
condition not met
4. CC(C)n1c(=O)n(C)c2cnc3cc(F)c(-c4ccc(OCCCN5CCCCC5)nc4)cc3c21 [AZD-1390]
condition not met
5. CO[C@H]1CC[C@H](n2c(=O)n(C)c3cnc4ccc(-c5ccc(OCCCN(C)C)cc5)cc4c32)C1
condition not met
6. CC(C)n1c(=O)n(C)c2cnc3ccc(-c4ccc(OCCCCN(C)C)nc4)cc3c21
condition not met
7. COCc1ccc(-c2ccc3ncc4c(c3c2)n([C@@H]2CC[C@@H](OC)C2)c(=O)n4C)cn1 (relative stereo)
condition met
8. CC(C)n1c(=O)n(C)c2cnc3ccc(-c4ccc(OCCCN5CC[C@H](F)C5)nc4)cc3c21
condition not met
9. CC(C)n1c(=O)n(C)c2cnc3cc(F)c(-c4ccc(OCCCN(C)C)nc4)cc3c21
condition met
10. CC(C)n1c(=O)n(C)c2cnc3ccc(-c4ccc(N5CC(N(C)C)C5)nc4)cc3c21
condition not met

Could you please find out whether `COCc1ccc(-c2ccc3ncc4c(c3c2)n([C@@H]2CCOCC2(C)C)c(=O)n4C)cn1` has Papp A→B at […], 0.1 µM that meets 20 ×10⁻⁶ cm/s or exceeds it?
condition met

* * *

Reported values of logD for individual entries
Assay name: Lipophilicity, logD of the compound at pH 7.4
Assay type: physicochemical
Test context: buffer

The following molecules have reported results that may help.
1. CC(C)n1c(=O)n(C)c2cnc3ccc(-c4ccc(N5CC[C@@H](N(C)C)C5)nc4)cc3c21
3
2. CC(C)n1c(=O)n(C)c2cnc3cc(F)c(-c4ccc(OCCCN(C)C)nc4)cc3c21
2.1
3. COCc1ccc(-c2ccc3ncc4c(c3c2)n([C@H]2CCCOC2)c(=O)n4C)cn1
2.5
4. CC(C)n1c(=O)n(C)c2cnc3ccc(-c4ccc(OCCCN5CCC(F)CC5)nc4)cc3c21
3.3
5. CC(C)n1c(=O)n(C)c2cnc3ccc(-c4ccc(N5CC[C@H](N(C)C)C5)nc4)cc3c21
3

For `COCc1ccc(-c2ccc3ncc4c(c3c2)n(C2CCOCC2)c(=O)n4C)cn1` , what is its reported logD?
2.3

For `COCc1ccc(-c2ccc3ncc4c(c3c2)n([C@H]2C[C@@H](CO)C2)c(=O)n4C)cn1` , what is its reported logD?
2

* * *

Assay name: Lipophilicity, logD of the compound at pH 7.4
Format: physicochemical
Test context: buffer
Reported values of logD for individual entries
Reply briefly: the number, and no unit.

For `CC(C)n1c(=O)n(C)c2cnc3ccc(-c4ccc(OCCCN(C)C)cc4)cc3c21` , what is its reported logD?
2.7

For `Cn1c(=O)n(C2CCOCC2)c2c3cc(-c4ccc(OCCCN5CCCCC5)cc4)ccc3ncc21` , what is its reported logD?
2.5

For `CC(C)n1c(=O)n(C)c2cnc3ccc(-c4ccc(OCCCCN(C)C)nc4)cc3c21` , what is its reported logD?
1.9

For COCc1ccc(-c2ccc3ncc4c(c3c2)n([C@@H]2CC[C@@H](OC)C2)c(=O)n4C)cn1 (relative stereo) , what is its reported logD?
3
